This collection of values is drawn from the supplement of paper PMC9801561.

# Test system: Escherichia coli Nissle 1917
# assay_procedure: area under OmniLog respiration curve over 48 h (OmniLog units x h); higher = more growth / nutrient utilisation; extreme values may be limits of the assay
# test_parameters: nutrient role: sole nitrogen source (pyruvate carbon); incubation: 48 h, 37 °C
# if value of area under OmniLog respiration curve reaches 400, tag Met; if it stays below, tag Not met

molecule	category_label
NCC(=O)N[C@@H](CC(N)=O)C(=O)O	Met
NCCCCN	Not met
C[C@H](N)C(=O)O	Met
CCCCCN	Not met
CCC(N)C(=O)O (racemic)	Met
CC(=O)N[C@@H]1C(O)O[C@H](CO)[C@@H](O)[C@@H]1O (some centres undefined)	Met
CSCC[C@H](N)C(=O)O	Met
C[C@H](N)C(=O)N[C@@H](Cc1cnc[nH]1)C(=O)O	Met
O=c1ccn([C@@H]2O[C@H](CO)[C@@H](O)[C@H]2O)c(=O)[nH]1	Not met
C[C@H](N)C(=O)N[C@@H](CCC(=O)O)C(=O)O	Met
NCCCCN=C(N)N	Not met
NC(=O)CC[C@H](N)C(=O)O	Met
CC(O)C(N)=O (racemic) [DL-Lactamide]	Not met
Nc1cc[nH]c(=O)n1	Met
Nc1nc2c(ncn2[C@@H]2O[C@H](CO)[C@@H](O)[C@H]2O)c(=O)[nH]1	Met
N[C@@H](CCC(=O)O)C(=O)O	Met
N[C@@H](Cc1ccccc1)C(=O)O	Met
NC(=O)C[C@@H](N)C(=O)O	Met
NCCO	Not met

---

# Test system: Escherichia coli Nissle 1917
# assay_procedure: DuctApe activity index of respiration/growth curve (0 no growth to 9 maximum) (index 0-9); higher = more growth / nutrient utilisation, active = 3 or more; extreme values may be limits of the assay
# test_parameters: nutrient role: sole nitrogen source (pyruvate carbon); incubation: 48 h, 37 °C
measurement_label: DuctApe activity index

compound	measurement_label	result
NC(=O)CC[C@H](N)C(=O)O	DuctApe activity index	8.33 (active)
NCCc1c[nH]cn1	DuctApe activity index	0 (inactive)
O=C(O)CC[C@@H](C(=O)O)N1C(=O)c2ccccc2C1=O	DuctApe activity index	6 (active)
NC(=O)NCCC[C@H](N)C(=O)O	DuctApe activity index	2.33 (inactive)
CC(N)=O [Acetamide]	DuctApe activity index	0 (inactive)
CSCC[C@H](N)C(=O)O	DuctApe activity index	6 (active)
O=c1ccn([C@@H]2O[C@H](CO)[C@@H](O)[C@H]2O)c(=O)[nH]1	DuctApe activity index	0 (inactive)
NCCO	DuctApe activity index	0 (inactive)
N[C@@H]1C(O)O[C@H](CO)[C@@H](O)[C@@H]1O (stereo not given in full)	DuctApe activity index	1.67 (inactive)
N[C@@H](CCO)C(=O)O	DuctApe activity index	1.33 (inactive)
NC(=O)NC(N)=O	DuctApe activity index	5 (active)
Nc1nc2c(ncn2[C@@H]2O[C@H](CO)[C@@H](O)[C@H]2O)c(=O)[nH]1	DuctApe activity index	0.333 (inactive)
O=c1[nH]c(=O)c2nc[nH]c2[nH]1	DuctApe activity index	4 (active)
N[C@@H](CC(=O)O)C(=O)O	DuctApe activity index	8.33 (active)
NCC(=O)N[C@@H](CCC(N)=O)C(=O)O	DuctApe activity index	8.67 (active)
Oc1nc(O)c2nc(O)[nH]c2n1	DuctApe activity index	2.33 (inactive)
NCCCCN	DuctApe activity index	0 (inactive)
NC=O [Formamide]	DuctApe activity index	0 (inactive)
O=c1cc[nH]c(=O)[nH]1	DuctApe activity index	0 (inactive)
Nc1[nH]cnc2ncnc1-2	DuctApe activity index	6.67 (active)
NC(=O)C[C@H](N)C(=O)O	DuctApe activity index	8.67 (active)
N[C@@H](CCC(=O)O)C(=O)O	DuctApe activity index	8 (active)
CC(C)C[C@H](N)C(=O)O	DuctApe activity index	1.33 (inactive)
CC(C)[C@H](N)C(=O)O	DuctApe activity index	4 (active)
N[C@H](CCC(=O)O)C(=O)O	DuctApe activity index	0.667 (inactive)
